Values compiled from patent US12410262B2.

test system: FaDu; assay: cells; type: cell-based; conditions: Homo sapiens; FaDu cells, 96 h after addition of drug; read-out: FaDu (IC50)
READOUT: pIC50
Answers are plain numbers, as −log10 of the molar value.

Which pIC50 is listed for CC[C@@]1(O)C(=O)OCc2c1cc1n(c2=O)Cc2c-1nc1cc(F)c(C)c3c1c2[C@@H](N)CC3 [R^8H-5, reference compound] ? 10.40
